test system: Staphylococcus aureus; experiment: Antibacterial activity against tetracycline-resistant Staphylococcus aureus XU212 after 18 hrs; format: functional; conditions: XU212, 18 h

smiles.code: CCCCCc1cc(OC)c(C/C=C(\C)CCC=C(C)C)c(OC)c1
MIC: > 128 µg/mL
--
smiles.code: C=C(C)[C@@H]1CCC(C)=C[C@H]1c1c(O)cc(CCCCC)cc1OC
MIC: > 128 µg/mL
--
smiles.code: CCCCCc1cc(OC(C)=O)c(C/C=C(\C)CCC=C(C)C)c(OC(C)=O)c1
MIC: > 128 µg/mL

----------
tested on: Staphylococcus aureus; assay: Antibacterial activity against epidemic methicillin-resistant Staphylococcus aureus 16 after 18 hrs; type: functional
Measured MIC values are reported for all entries that follow.

molecule: Oc1cccc(O)c1
MIC: > 256 µg/mL
--
molecule: CCCCCc1cc(OC)c(C/C=C(\C)CCC=C(C)C)c(OC)c1
MIC: > 128 µg/mL
--
molecule: C=C(C)[C@@H]1CCC(C)=C[C@H]1c1c(OC)cc(CCCCC)cc1OC
MIC: > 128 µg/mL
--
molecule: CCCCCc1cc(O)c(C/C=C(\C)CCC=C(C)C)c(OC)c1
MIC: > 128 µg/mL
--
molecule: C=C(C)C1CCC(C)=CC1c1c(CCCCC)cc(O)c([C@@H]2C=C(C)CC[C@H]2C(=C)C)c1O (stereo not given in full)
MIC: > 128 µg/mL

----------
Quick reference: MIC of the listed items.
tested on: Staphylococcus aureus; assay: Antibacterial activity against tetracycline-resistant Staphylococcus aureus XU212 after 18 hrs; type: functional; details: XU212, 18 h

smiles.code: C=C(C)[C@@H]1CCC(C)=C[C@H]1c1c(O)cc(CCCCC)c(C(=O)OCCc2ccccc2)c1O
target.under.test: Staphylococcus aureus
MIC: > 128 µg/mL
//
smiles.code: CCCCCc1cc(O)c(C/C=C(\C)CCC=C(C)C)c(O)c1C(=O)OCCc1ccccc1
target.under.test: Staphylococcus aureus
MIC: > 128 µg/mL
//
smiles.code: C=C(C)[C@@H]1CCC(C)=C[C@H]1c1c(OC)cc(CCCCC)cc1OC
target.under.test: Staphylococcus aureus
MIC: > 128 µg/mL

----------
test system: Staphylococcus aureus; assay: Antibacterial activity against macrolide-resistant Staphylococcus aureus RN4220 after 18 hrs; type: functional; conditions: RN4220, 18 h

smiles.code: C=C(C)[C@@H]1CCC(C)=C[C@H]1c1c(O)cc(CCCCC)cc1OC
MIC: > 128 µg/mL
//
smiles.code: CCCCCc1cc(O)c(C/C=C(\C)CCC=C(C)C)c(O)c1C(=O)OCCc1ccccc1
MIC: > 128 µg/mL
//
smiles.code: CCCCCc1cc(O)c(C/C=C(\C)CCC=C(C)C)c(OC)c1
MIC: > 128 µg/mL

----------
tested on: Staphylococcus aureus; test: Antibacterial activity against tetracycline-resistant Staphylococcus aureus XU212 after 18 hrs; type: functional; conditions: XU212, 18 h

molecule: Oc1cccc(O)c1 [RESORCINOL]
MIC: > 256 µg/mL

molecule: C=C(C)C1CCC(C)=CC1c1c(CCCCC)cc(O)c([C@@H]2C=C(C)CC[C@H]2C(=C)C)c1O (stereo not given in full)
MIC: > 128 µg/mL

molecule: C=C(C)[C@@H]1CCC(C)=C[C@H]1c1c(OC(C)=O)cc(CCCCC)cc1OC(C)=O
MIC: > 128 µg/mL

molecule: CCCCCc1cc(O)c(C/C=C(\C)CCC=C(C)C)c(OC)c1
MIC: > 128 µg/mL

molecule: C=C(C)[C@@H]1CCC(C)=C[C@H]1c1c(O)cc(CCCCC)c(C(=O)OC)c1O
MIC: > 128 µg/mL

----------
test system: Staphylococcus aureus; assay: Antibacterial activity against macrolide-resistant Staphylococcus aureus RN4220 after 18 hrs; assay type: functional; details: RN4220, 18 h
# maps each entry to its MIC

smiles.code: C=C(C)[C@@H]1CCC(C)=C[C@H]1c1c(O)cc(CCCCC)c(C(=O)OCCc2ccccc2)c1O
MIC: > 128 µg/mL
--
smiles.code: C=C(C)[C@@H]1CCC(C)=C[C@H]1c1c(OC(C)=O)cc(CCCCC)cc1OC(C)=O
MIC: > 128 µg/mL
--
smiles.code: CCCCCc1cc(OC)c(C/C=C(\C)CCC=C(C)C)c(OC)c1
MIC: > 128 µg/mL
--
smiles.code: CCCCCc1cc(OC(C)=O)c(C/C=C(\C)CCC=C(C)C)c(OC(C)=O)c1
MIC: > 128 µg/mL
--
smiles.code: Oc1cccc(O)c1
MIC: > 256 µg/mL

Origin of the recorded values: ChEMBL document CHEMBL1156638
